These entries and their values trace back to the supplement of paper PMC8728848.

# target_entity: Man(a1-2)Man(a1-2)Man(a1-3)Man
# procedure_text: glycan array binding signal (z-score within array); higher = stronger binding
# condition_notes: glycan notation: IUPAC condensed, linker removed
Only a selection was taken, and the strongest signals are over-represented in it overall.
measured_parameter: glycan array binding signal (z-score)
Write the value as a bare number.

INSERT INTO assay_data (binder, measured_parameter, obs_value) VALUES
  ('Mindin (Homo sapiens), Q9BUD6 (protein) MENPSPAAALGKALCALLLATLGAAGQPLGGESICSARALAKYSITFTGKWSQTAFPKQYPLFRPPAQWSSLLGAAHSSDYSMWRKNQYVSNGLRDFAERGEAWALMKEIEAAGEALQSVHEVFSAPAVPSGTGQTSAELEVQRRHSLVSFVVRIVPSPDWFVGVDSLDLCDGDRWREQAALDLYPYDAGTDSGFTFSSPNFATIPQDTVTEITSSSPSHPANSFYYPRLKALPPIARVTLVRLRQSPRAFIPPAPVLPSRDNEIVDSASVPETPLDCEVSLWSSWGLCGGHCGRLGTKSRTRYVRVQPANNGSPCPELEEEAECVPDNCV', 'glycan array binding signal (z-score)', -0.085);

The record that follows has no glycan array binding signal (z-score) shown yet.
So for TbCVNHOb (Tuber borchii) (protein) GSHIGPYMSFYASSEDVRTIEEGGRTWLVGRARRADGSWQDIKLDLDNIIGNRDGHLTWGEQNFTQSASDIRFNFEGGSNVPVLRAKLRNAAGGEQESDLNLGERLTNNNGDLVFN , the logged glycan array binding signal (z-score) turned out to be 5.4
